tested on: OVCAR-8 ovarian; assay: NCI-60 one-dose screen, 48 h (100 = growth as untreated, 0 = no growth, -100 = all killed); conditions: 10 µM unless noted
The panel holds about 83,000 compounds, 20% with a hit somewhere; the sample as a whole holds those more often. Activity calls are given as the source filed them. The calls were made as follows: active = growth percent below 10; inactive = the rest.
Form field: growth (one value per entry).
Readout name: growth

O=C1NC(=O)C(=Cc2cc(-c3ccc(Cl)cc3)n(-c3ccccc3)n2)C(=O)N1 :: 101% (inactive)
Cc1cc2nc(C(Cl)Cl)nc(-c3ccccc3)n2n1 :: 49.6% (inactive)
COCCNC(=O)Cc1cc(-c2ccc(Cl)cc2)n(-c2ccccc2)c1C :: 85.8% (inactive)
O=C(CSc1nnc(-c2cc(-c3ccc(Cl)cc3)nc3ccccc23)n1-c1ccccc1)Nc1ccc(Cl)cc1 :: 98.3% (inactive)
Cn1cc(-c2nc(-c3c[nH]c4c(Cl)nccc34)cs2)c2ccccc21 :: 91.1% (inactive)
FC(F)(F)c1cccc(-c2nnn(Cc3cc(-c4cccc(Cl)c4)no3)n2)c1 :: 101% (inactive)
CN(Cc1ccccc1)c1nc(Cl)c(C2CC(c3ccc(Cl)cc3)=NN2c2cc(Cl)cc(Cl)c2)s1 (centres undefined) :: 106% (inactive)
CC/C(=C(/c1ccc(Cl)cc1)c1ccc(OCCN2CCCCCC2)cc1)c1ccccc1 :: 84.8% (inactive)
COc1ccc(-c2ccc(-c3ccc(C(=N)N)o3)o2)cc1 :: 28.9% (inactive)
C=C1/C(=C\C=C2/CCC[C@]3(C)[C@@H]([C@H](C)CCCC(C)(C)O)CC[C@@H]23)C[C@@H](OC(=O)CBr)C[C@@H]1O :: 57.3% (inactive)
O=C(COc1ccc(/C=C2\Oc3ccccc3C2=O)cc1)Nc1nccs1 :: 41.8% (inactive)
Fc1ccc(/C=C/c2cc(/C=C/c3ccc(F)cc3)n(-c3cc(F)cc(F)c3)n2)cc1 :: 112% (inactive)
Cn1cc(-c2ccc3occ(-c4cccc(-c5ccncc5)c4)c3n2)cn1 :: 7.42% (active)
CN1CCN(Cc2ccc(NC(=O)c3cncc(C#Cc4c(N)ncc5ccccc45)c3)cc2C(F)(F)F)CC1 :: -62.3% (active)
CCCn1cnc2c(c1=N)C(c1ccc(Cl)cc1)c1sc3c(F)cccc3c1O2 (centres undefined) :: 86.4% (inactive)
COC(=O)[C@@H](Cc1c[nH]c2ccccc12)NC[C@@H](O)CN1C(=O)/C(=C\c2cc(OC)c(OC)c(OC)c2)c2ccccc21 :: 59.3% (inactive)
O=C(Nc1cccc2c1C(=O)c1cccc(NC(=O)c3ccc(C(=O)Nc4cccc5c4C(=O)c4cccc(NC(=O)c6ccccc6)c4C5=O)cc3)c1C2=O)c1ccccc1 :: 98.1% (inactive)
COC(=O)c1sc(-c2ccc(C)cc2)cc1O :: 117% (inactive)
COc1ccc(S(=O)(=O)NC2c3ccccc3CC2O)cc1OC (centres undefined) :: 107% (inactive)

---

test system: SF-295 CNS; assay: NCI-60 one-dose screen, 48 h (100 = growth as untreated, 0 = no growth, -100 = all killed); settings: 10 µM unless noted
About 83,000 compounds went through this panel and 20% of them were active in at least one assay; those are over-represented in the sample as a whole.
Response field label takes Fulfilled when growth is strictly below 90% and Not fulfilled in all other cases.

COc1nc2ccccc2cc1/C=[N+](\[O-])c1ccccc1 :: Not fulfilled
NC(=O)[C@@H]1Cc2ccccc2CN1C(=O)c1ccc2c(c1)Cc1ccccc1-2 :: Fulfilled
Oc1cccc(-c2nc(-c3n[nH]c(=S)n3-c3ccccc3)cc3c2[nH]c2ccccc23)c1 :: Fulfilled
Cc1ccccc1NC(=O)c1sc2nc3c(cc2c1N)CCCC3 :: Fulfilled
O=C1NCCS(=O)(=O)/C1=C\C=C\c1cccc(C(F)(F)F)c1 :: Fulfilled
C=CCn1c(SCC(=O)Nc2ccc(C(=O)/C=C/c3ccc(Cl)cc3)cc2)nnc1-c1ccccc1 :: Not fulfilled
Cc1cc2nc(C(Cl)Cl)nc(-c3ccccc3)n2n1 :: Fulfilled
CCOC(=O)CCC(=O)P(=O)(O)O :: Not fulfilled
c1ccc2c(-c3cnn4cc(-c5ccc(N6CCNCC6)cc5)cnc34)ccnc2c1 :: Fulfilled
COC1=C(OC)C(=O)C(CCCCCCCCCCO)=C(C)C1=O :: Fulfilled
COC(=O)c1nc(-c2ccc(C)cc2)oc1N1CCOCC1 :: Not fulfilled
COc1cc(NC(=O)c2cncnc2Nc2ccc3c(ccn3Cc3cccc(F)c3)c2)cc(OC)c1 :: Fulfilled
Nc1nc(N)c2c(n1)NC(c1cccc(Nc3ccnc4cc(C(F)(F)F)ccc34)c1)CC(c1ccc(Cl)cc1)=N2 (centres undefined) :: Fulfilled
COc1cc2c(c(OC)c1OC)CCC(c1cccc(C(=O)Nc3ccc([N+](=O)[O-])cc3)c1)O2 (centres undefined) :: Fulfilled
COc1cc2c(c(OC)c1OC)CCC(c1cccc(NC(=O)c3cccc(Cl)c3)c1)O2 (centres undefined) :: Fulfilled
CO[C@]12C=C/C(=C(/C(=O)OCc3cccnc3)C(=O)CCCCCCCC[C@]3(OC)C=C/C(=C(/C(=O)OCc4cccnc4)C(=O)CCCCCCCC1)O3)O2 :: Fulfilled
CCCS(=O)(=O)Nc1cccc(Nc2ncnc3cc(NC(=O)CCl)ccc23)c1Cl :: Fulfilled
CN(CCNc1ccc(C(=N)N)cc1)c1ccc(C(=N)N)cc1 :: Fulfilled
O=C(NS(=O)(=O)c1ccccc1)n1cc(-c2ccncc2)c(-c2cc(O)cc(Cl)c2)n1 :: Not fulfilled
COc1ccc(Nc2nccc(Nc3ccc4[nH]ncc4c3)n2)cc1 :: Fulfilled
O=C(/C=C/c1cccc([N+](=O)[O-])c1)c1ccc(Nc2nc(Nc3ccc(F)cc3)nc(Nc3ccc(Cl)cc3)n2)cc1 :: Fulfilled
CC(C)(C)n1cc(-c2ccnc(NCCNS(=O)(=O)c3ccc(C(F)(F)F)cc3)c2)c(-c2ccccc2)n1 :: Fulfilled
CCOC(=O)c1c(NC(=S)Nc2ccc([N+](=O)[O-])cc2)sc2c1CCCCC2 :: Fulfilled
O=C(O)/C=C\C(=O)Nc1ccc2c(c1)Cc1cc(F)ccc1-2 :: Not fulfilled
O=C(CSc1nnc(-c2cc(-c3ccc(Cl)cc3)nc3ccccc23)n1-c1ccccc1)Nc1ccc(Cl)cc1 :: Not fulfilled
CCOC(=O)c1ccc2c(c1)[n+](=O)c(C(C)=O)c(C(F)(F)F)n2[O-] :: Fulfilled
Cc1ccc(Nc2nc(N)nc(N)c2N=O)cc1Cl :: Not fulfilled
O=C1/C(=C/c2cccc([N+](=O)[O-])c2)COc2ccc(O)c(O)c21 :: Fulfilled
C=C(C)[C@@H]1CCC[C@]2(C(=O)OC)CC[C@]3(C)[C@@H](CC[C@@H]4[C@@]5(C)CCCNC(C)(C)[C@@H]5CC[C@]43C)[C@@H]12 :: Not fulfilled
CCOc1ccccc1NC(=O)CCC(=O)OC :: Not fulfilled
Cn1ccnc1C(=O)/C=C/c1ccc(C(=O)Nc2ccccc2F)cc1 :: Fulfilled
COc1ccc(C(=O)C2OC3=C(C(=O)CC(C)(C)C3)C2c2cccc(Oc3ccccc3)c2)cc1 (centres undefined) :: Not fulfilled
Cc1ccc(-c2nnc(SCc3nc(N)nc(Nc4ccccc4F)n3)n2-c2ccccc2)cc1 :: Not fulfilled

---

test system: MDA-MB-231 breast; assay: NCI-60 one-dose screen, 48 h (100 = growth as untreated, 0 = no growth, -100 = all killed); conditions: 10 µM unless noted
The panel holds about 83,000 compounds, 20% with a hit somewhere; the sample as a whole holds those more often.
Outcome label depends on growth relative to 50%: at/above gives 1, below gives -1.

COc1cc(/C=C/c2cc(/C=C/c3ccc(O)c(OC)c3)n(C(=O)Nc3ccc(C)cc3C)n2)ccc1O :: -1
CN(C)c1ccc(Cc2cc(-c3ccccc3)nn(C/C(=N/O)c3ccccc3)c2=O)cc1 :: 1
CN1CCN(Cc2ccc(NC(=O)c3cncc(C#Cc4c(N)ncc5ccccc45)c3)cc2C(F)(F)F)CC1 :: -1
CCN1C(=O)N(CC)C2C1NN=c1s/c(=C3\C(=O)N(C)c4ccccc43)c(=O)n12 (stereo not drawn) :: -1
Cc1ccc2c(n1)C[C@H](C(C)(C)O)CC[C@H]2C :: 1
CO[C@H]1/C=C/O[C@@]2(C)Oc3c(C)c(O)c4c(O)c(c5c(nc6cc(C)ccn65)c4c3C2=O)NC(=O)/C(C)=C\C=C\[C@H](C)[C@H](O)[C@@H](C)C(O)[C@@H](C)[C@H](OC(C)=O)[C@@H]1C (stereo partly drawn) :: 1
c1ccc(-c2cn3nc(-c4c[nH]c5ccccc45)sc3n2)cc1 :: 1
COc1ccc(-c2cc(-c3ccc(Nc4nc(Nc5ccc(Cl)cc5)nc(Nc5ccc(Cl)cc5)n4)cc3)no2)cc1 :: 1

---

Form field: growth (one value per entry).
tested on: HCC-2998 colon; assay: NCI-60 one-dose screen, 48 h (100 = growth as untreated, 0 = no growth, -100 = all killed); conditions: 10 µM unless noted
About 83,000 compounds went through this panel and 20% of them were active in at least one assay; those are over-represented in the sample as a whole. Active and inactive are the calls of the source. The calls were made as follows: active = growth percent below 10; inactive = the rest.
Readout name: growth

COC(=O)[C@H](C)NC(=O)[C@@H]1CCCN1C(=O)CNC(=O)[C@H](C)N :: 106% (inactive)
CCOC(=O)CSc1nc2sc3c(c2c(=O)n1-c1ccccc1)CCCCC3 :: 114% (inactive)
O=C(Nc1ncc(Cc2ccccc2)s1)c1ccc2c(c1)OCCO2 :: 13.3% (inactive)
CC(C)n1cc(C2=C(c3cccc4ccccc34)C(=O)NC2=O)c2cc(Br)ccc21 :: 52.1% (inactive)
COc1ccc(S(=O)(=O)Oc2ccc(-c3sc4cc(OS(=O)(=O)c5ccc(OC)cc5)ccc4c3C(=O)c3ccc(OCCN4CCCCC4)cc3)cc2)cc1 :: 105% (inactive)
